# System: UACC-62 melanoma
# ASSAY_PROCEDURE: NCI tumour cell line growth inhibition, 48 h
// TGI lookup, one value per entry
READOUT: TGI

• Nc1cccc2cc(Cl)cnc12 = > 100 µM
• Clc1cc(OC2C3CC4CC(C3)CC2C4)nc(Cl)n1 (stereo not given) = 24.7 µM
• Cc1ccc2c(=O)cc(-c3ccc(F)cc3)[nH]c2n1 = > 100 µM
• Cc1ccc(C(=O)/C(=C/c2ccc([N+](=O)[O-])cc2)SCc2ccc(Cl)cc2)cc1 = 3.41 µM
• N#CC1=C(N)N(c2ccccc2)C(c2ccco2)C1(C#N)C#N (stereo not given) = 59.3 µM
• CC[C@@]1(C[C@H]2C[C@@]3(C(=O)OC)c4[nH]c5ccccc5c4CCN3C2=O)COC2(CCCCC2)O1 = > 100 µM
• CCCCCCCCCCCCCCCCCC(CCCCCCCCCCCCCCCCC)OP(=O)(O)O = > 100 µM
• NC(=O)C(c1ccccc1)N1OC2C(=O)N(c3ccccc3)C(=O)C2C1c1c2ccccc2c(Cl)c2ccccc12 (stereo not given) = > 100 µM
• CNC(=O)C(C)C1CCC2(C)C=CC(=O)C(C)=C2C1O (stereo not given) = > 100 µM
• Cc1cn(C2CC(n3cc(Cn4cc(I)c(=O)[nH]c4=O)nn3)C(CO)O2)c(=O)[nH]c1=O (stereo not given) = > 100 µM

Reference source for all entries: PubChem BioAssay (NCI)
